Attribution: patent US10807968B2

Parameter: pest or weed control at 500 g/ha. Scope: all listed entries.
System: Myzus persicae
Protocol description: Myzus persicae - spray test (Chinese cabbage leaf discs)
Assay type: in vivo
Run conditions: Myzus persicae, foliar, 144 h, 500 g/ha, after 6 days, read-out: efficacy in % (aphids killed)

Solved cases (8 shown):
CN(C(=O)c1cnc(-c2cccnc2)n1C)c1cccnc1 ... 90%
CN(C(=O)c1cnc(-c2ccncc2)n1C)c1cccnc1 ... 100%
CN(C(=O)c1cnc(-c2cccn2C)n1C)c1cccnc1 ... 90%
COc1cccc(-c2ncc(C(=O)N(C)c3cccnc3)n2C)n1 ... 90%
Cc1cc(F)c(-c2ncc(C(=O)N(C)c3cccnc3)n2C)cc1SCC(F)(F)F ... 90%
CN(C(=O)c1cnc(-c2cccc(COC3CCOCC3)c2)n1C)c1cccnc1 ... 90%
COc1ncc(-c2ncc(C(=O)N(C)c3cccnc3)n2C)cc1C#N ... 100%
CN(C)c1ncc(-c2ncc(C(=O)N(C)c3cccnc3)n2C)cc1C#N ... 100%

# input Item COc1cc(-c2ncc(C(=O)N(C)c3cccnc3)n2C)cc(C(F)(F)F)n1 has what recorded pest or weed control at 500 g/ha?
# output 90%

# input Returns the measured pest or weed control at 500 g/ha for the input compound. Input: CN(C(=O)c1cnc(-c2cn(C)nn2)n1C)c1cccnc1
# output 100%

# input // lookup pest or weed control at 500 g/ha for COc1ccc(-c2ncc(C(=O)N(C)c3cccnc3)n2C)c(OC)n1
# output 100%

# input What pest or weed control at 500 g/ha value was documented for this compound, COc1ncc(Cl)cc1-c1ncc(C(=O)N(C)c2cccnc2)n1C ?
# output 100%

# input Please look up its pest or weed control at 500 g/ha: CN(C(=O)c1cnc(-c2cncc(C#N)c2)n1C)c1cccnc1
# output 90%

# input # get_value(readout='pest or weed control at 500 g/ha', item= CN(C(=O)c1cnc(-c2ccc(C#N)c(C(F)(F)F)c2)n1C)c1cccnc1 )
# output 90%

# input What pest or weed control at 500 g/ha value was documented for this compound, CN(C(=O)c1cnc(-c2cc(-c3ccccc3)no2)n1C)c1cccnc1 ?
# output 100%

# input What does the data say about its pest or weed control at 500 g/ha? Entry: CN(C(=O)c1cnc(-c2ccccn2)n1C)c1cccnc1
# output 90%

# input Reported pest or weed control at 500 g/ha, compound CCN(C(=O)c1cnc(-c2cnc(OC)c(C#N)c2)n1C)c1cccnc1 : ____
# output 100%

# input # get_value(readout='pest or weed control at 500 g/ha', item= CN(C(=O)c1cnc(-c2ncccn2)n1C)c1cccnc1 )
# output 90%

###

Some compounds, each annotated with its measured efficacy in % (aphids killed).
Tested on: Myzus persicae
Protocol description: Myzus persicae - oral test
Assay type: in vivo
Run conditions: 20 ppm, after 5 days
Hi! Could you send only the number? It should be in %, unit omitted.

# input Return reported efficacy in % (aphids killed); argument: CCOc1ccc(-c2ncc(C(=O)N(C)c3cccnc3)n2C)cn1 [Example 89]
# output 100

# input Requested field: efficacy in % (aphids killed). Item: CN(C(=O)c1cnc(-c2cccc(C#N)c2)n1C)c1cccnc1 [Example 58]
# output 100

# input Give its efficacy in % (aphids killed) value. Item: COc1ncccc1-c1ncc(C(=O)N(C)c2cccnc2)n1C [Example 88]
# output 100

###

Protocol description: log P determination by HPLC on reversed-phase (C18) columns, OECD Guideline 117
Type: physicochemical
Run conditions: HPLC, acidic range pH 2.7, 0.1% aqueous formic acid/acetonitrile; read-out: logp-acidic
Attribute measured: chromatographic logP

# input # query: chromatographic logP of entry CN(C(=O)c1cnc(-c2cc3ccccc3o2)n1C)c1cccnc1
# output 1.63

###

Protocol description: log P determination by HPLC on reversed-phase (C18) columns, OECD Guideline 117
Format: physicochemical
Run conditions: pH 2.7
Attribute measured: logp-acidic
No unit in the answer, only the number.

Record excerpt, results attached:
CN(C(=O)c1cnc(-c2cccc3ccoc23)n1C)c1cccnc1 ... 0.97
CN(C(=O)c1cnc(-c2cnn(-c3ccc(F)cc3)c2)n1C)c1cccnc1 ... 1.21

Note: attention shifts to another entry.
# input Fill blank: measured logp-acidic of the compound CN(C(=O)c1cnc(-c2cccc(SC(F)(F)F)c2)n1C)c1cccnc1 is ____.
# output 2.00

###

Protocol description: log P determination by HPLC on reversed-phase (C18) columns, OECD Guideline 117
Type: physicochemical
Run conditions: pH 7.8
Attribute measured: logp-neutral
Lab note: jot down the number only; don't add units.

Sample records with logp-neutral:
CN(C(=O)c1cnc(-c2cnn(-c3ccc(F)cc3)c2)n1C)c1cccnc1 ... 1.68
CN(C(=O)c1cnc(-c2cccc3ccoc23)n1C)c1cccnc1 ... 1.62
CCOc1ncc(-c2ncc(C(=O)N(C)c3cccnc3)n2C)cc1C#N ... 1.73
COc1ncc(-c2ncc(C(=O)N(C)c3cccnc3)n2C)cc1C(F)(F)F ... 2

# input For COC(=O)c1cccc2c(-c3ncc(C(=O)N(C)c4cccnc4)n3C)cccc12 , what is its reported logp-neutral?
# output 1.95

###

Protocol description: log P determination by HPLC on reversed-phase (C18) columns, OECD Guideline 117
Assay type: physicochemical
Run conditions: pH 2.7
# binarize logp-acidic: threshold 1 inclusive, high side met, low side not met

CN(C(=O)c1cnc(-c2cc(Cl)cc(C(F)(F)F)c2)n1C)c1cccnc1 ... met
CC(=O)OCc1cc(-c2ncc(C(=O)N(C)c3cccnc3)n2C)ccc1F ... met

# input Decide: is the reported value of logp-acidic for CSc1ncccc1-c1ncc(C(=O)N(C)c2cccnc2)n1C equal to or greater than 1?
# output not met

# input Does the reported logp-acidic for CSc1cc(-c2ncc(C(=O)N(C)c3cccnc3)n2C)ccc1C fall at or above the 1 mark?
# output met

# input Is it the case that CN(C(=O)c1cnc(-c2cccc(S(C)(=O)=O)c2)n1C)c1cccnc1 has logp-acidic reaching or exceeding 1?
# output not met

# input Answer whether logp-acidic of CCOC(=O)COc1cc(-c2ncc(C(=O)N(C)c3cccnc3)n2C)ccc1F is greater than or equal to 1.
# output met

# input Hi, just wondering whether CN(C(=O)c1cnc(-c2cccc([S+]([O-])CC(F)(F)F)c2)n1C)c1cccnc1 (stereo not drawn) shows logp-acidic of 1 or higher.
# output met

# input I'd appreciate it if you could say whether COC(=O)c1cccc2c(-c3ncc(C(=O)N(C)c4cccnc4)n3C)cccc12 has logp-acidic at least equal to 1.
# output met

# input Form field: logp-acidic at least 1? Entry: COc1ccc(OC)c(-c2ncc(C(=O)N(C)c3cccnc3)n2C)c1
# output not met

###

Protocol description: log P determination by HPLC on reversed-phase (C18) columns, OECD Guideline 117
Format: physicochemical
Run conditions: reversed-phase (C18) HPLC column, pH 2.7, HPLC, acidic range pH 2.7, 0.1% aqueous formic acid/acetonitrile; read-out: logp-acidic
Listed next: entries and their corresponding chromatographic logP.
Please reply with the value in numeric form only.

Use these answered entries as a reference point.
COc1cc(-c2ncc(C(=O)N(C)c3cccnc3)n2C)cc(C(F)(F)F)n1 ... 2.05
CN(C(=O)c1cnc(-c2cn(C)nn2)n1C)c1cccnc1 ... 0.27

# input Given the entry CN(C(=O)c1cnc(-c2ccc(F)c(C(F)(F)F)c2)n1C)c1cccnc1 , report its measured chromatographic logP.
# output 1.72

# input Given the entry CN(C(=O)c1cnc(-c2cncc(C#N)c2)n1C)c1cccnc1 , report its measured chromatographic logP.
# output 0.75

# input Requested read-out: chromatographic logP. Entry: CN(C(=O)c1cnc(-c2ncccn2)n1C)c1cccnc1
# output 0.35

###

Protocol description: log P determination by HPLC on reversed-phase (C18) columns, OECD Guideline 117
Format: physicochemical
Run conditions: reversed-phase (C18) HPLC column, pH 2.7, HPLC, acidic range pH 2.7, 0.1% aqueous formic acid/acetonitrile; read-out: logp-acidic
Experimental: The log P values were determined in accordance with OECD Guideline 117 (EC Directive 92/69/EEC) by HPLC (high-performance liquid chromatography) using reversed-phase (RP) columns (C18), by the following methods: [a] The LC-MS determination in the acidic range was carried out at pH 2.7 with 0.1% aqueous formic acid and acetonitrile (contains 0.1% formic acid) as mobile phases; linear gradient from 10% acetonitrile to 95% acetonitrile. [b] […]
Lab note: anything with chromatographic logP at or over 0.7 counts as T; the rest go in F.

Look over these answered cases.
CN(C(=O)c1cnc(-c2cccn2C)n1C)c1cccnc1 [Example 14] ... F
CN(C(=O)c1cnc(Br)n1C)c1cccnc1 [XI] ... F
Cc1cc(F)c(-c2ncc(C(=O)O)n2C)cc1SCC(F)(F)F [XIX] ... T
COC(=O)c1cnc(-c2cc(SCC(F)(F)F)c(C)cc2F)n1C [XVIII] ... T

From here, focus on the item given below.
# input Test whether the molecule CN(C)c1ncc(-c2ncc(C(=O)N(C)c3cccnc3)n2C)cc1C#N [Example 65] records chromatographic logP of 0.7 or higher.
# output T
